Source listed as PubChem BioAssay (NCI).

Let's look at some molecules and their measured TGI.
system: NCI-H226 lung; test: NCI tumour cell line growth inhibition, 48 h

molecule: CC1CC(N2CCOCC2)=Nc2ccccc2N1Cc1ccccc1 (stereo not drawn)
test target: NCI-H226 lung
TGI: > 100 µM
//
molecule: c1ccc(CN2COc3c(ccc4c5c(ccc34)CN(Cc3ccccc3)CO5)C2)cc1
test target: NCI-H226 lung
TGI: > 100 µM
//
molecule: CCN1C[C@]2(C)CC[C@H](OC)C34C5C[C@@H]6[C@@H](OC)C[C@@](OC)(C5[C@H]6OCc5ccccc5)C(C13)[C@H](OC(C)=O)[C@@H]42 (stereo partly drawn)
test target: NCI-H226 lung
TGI: > 100 µM
//
molecule: Cc1ccc(S(=O)(=O)N2CC(CCN)c3ccccc32)cc1 (stereo not drawn)
test target: NCI-H226 lung
TGI: 11.6 µM
//
molecule: O=c1n(-c2ccccc2)c(=O)n2c(-c3ccccc3)c(-c3ccccc3)n12
test target: NCI-H226 lung
TGI: > 100 µM

-- ask Given the molecule CC1(C)[C@H](O)[C@H](F)C[C@@]2(C)Oc3ccc(C(=O)Nc4ccc5c(c4)NC(=O)C54CCN(CCCCC#N)CC4)cc3C[C@H]12 , what is its reported TGI?
-- reply 17.4 µM

-- ask Given the molecule COc1ccc(C(=O)Oc2c(C#N)sc3c2c(=O)n(-c2ccccc2)c(=S)n3-c2ccccc2)cc1 , what is its reported TGI?
-- reply 57 µM

-- ask Given the molecule Nc1nc2ncn(CC(O)CO)c2c(=O)[nH]1 (stereo not drawn) , what is its reported TGI?
-- reply > 100 µM

-- ask Given the molecule O=C1/C(=C/c2ccccc2O)N=C(c2ccccc2)N1c1cc(C(F)(F)F)ccc1Cl , what is its reported TGI?
-- reply > 100 µM

----------
test system: UACC-257 melanoma; experiment: NCI tumour cell line growth inhibition, 48 h
Let's look at some compounds and their measured TGI.

compound: Cc1ccc(NC(=O)/C(C#N)=C/c2ccccc2)c(C)c1
test target: UACC-257 melanoma
observed result: > 100 µM

compound: Cc1cc2c(c(=O)o1)C1=S(SC(c3ccccc3)=C1)S2 (configuration not stated)
test target: UACC-257 melanoma
observed result: > 100 µM

-- ask Identify the measured TGI of C/C(=N\NC(=O)C(N)=O)c1c(O)cc(C)oc1=O for UACC-257 melanoma.
-- reply > 100 µM

-- ask Identify the measured TGI of c1ccc2cc3c(cc2c1)OP1(Oc2cccc4cccnc24)(O3)Oc2cc3ccccc3cc2O1 for UACC-257 melanoma.
-- reply 8.94 µM

-- ask Identify the measured TGI of C/C(N)=N/OCc1nc(C)no1 for UACC-257 melanoma.
-- reply > 100 µM

-- ask Identify the measured TGI of CC1(C)[C@H](O)[C@H](F)C[C@@]2(C)Oc3ccc(C(=O)Nc4ccc5c(c4)NC(=O)C54CCN(CCCCC#N)CC4)cc3C[C@H]12 for UACC-257 melanoma.
-- reply 5.02 µM

-- ask Identify the measured TGI of Oc1cccnc1/C=N/OCc1ccccc1 for UACC-257 melanoma.
-- reply > 100 µM

-- ask Identify the measured TGI of COc1cccc(C(NC2=NCCC=N2)c2cc3c(cc2O)OCO3)c1O (configuration not stated) for UACC-257 melanoma.
-- reply > 100 µM
